Reference source for all entries: patent US20170129961A1

# measurement target: T1, human CD70 (human, UniProt P32970 1-193)
# T1 construct: also called hu CD70; CD27L
# T1 sequence: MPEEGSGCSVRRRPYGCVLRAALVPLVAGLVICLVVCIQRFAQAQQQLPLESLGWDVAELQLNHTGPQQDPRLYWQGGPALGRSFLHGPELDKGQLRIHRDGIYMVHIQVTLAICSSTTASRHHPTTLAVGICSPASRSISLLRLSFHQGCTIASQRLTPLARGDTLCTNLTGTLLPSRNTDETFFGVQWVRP
# assay method text: FACS on CHO cells, periplasmic scFv
test readout: binding result

1. CD70-64 (scFv, As m32) scFv: EVQLLESGGGLVQPGGSLRLSCAASGFTFSVYAMSWVRQAPGKCLEWVSTISDSGGSTFYADSVKGRFTISRDNSKNTLYLQMNRLRAEDTAVYYCARHDYSNYAYFDYWGQGTLVTVSSGGGGSGGGGSGGGGSEIVLTQSPGTLSLSPGERATLSCRASQSVRSSYLAWYQQKPGQAPRLLIYGASSRATGIPDRFSGSGSGTDFTLTISRLEPEDFAVYYCQQYGDLPFTFGCGTKVEIK; binds
2. CD70-28 (scFv, As m32) scFv: EVQLLESGGGLVQPGGSLRLSCAASGFTFSTYAMSWVRQAPGKGLEWVSLISGSGGRTYYADSVKGRFTISRDNSKNTLYLQMNSLRAEDTAVYYCAKHDYSNYPYFDYWGQGTLVTVSSGGGGSGGGGSGGGGSEIVLTQSPGTLSLSPGERATLSCRASQSVRSNYLAWYQQKPGQAPRLLIYGASNRATGIPDRFSGSGSGTDFTLTISRLEPEDFAVYSCQQYGISPPTFGGGTKVEIK; binds
3. CD70-63 (scFv) scFv: EVQLVESGGGLVKPGGSLRLSCAASGITFSTYTMNWVRQAPGKGLEWVSSISSSSGYIYYADSVKGRFTISRDNAKNSLYLQMNSLRAEDTAVYYCARGDYSNYLYFDLWGRGTLVTVSSGGGGSGGGGSGGGGSEIVLTQSPGTLSLSPGERATLSCRASQSFRSSYLAWYQQKPGQAPRLLIHGASSRATGIPDRFSGSGSGTDFTLTISRLEPEDFAVYYCQLYGSLPITFGQGTRLEIK; binds
